Data provenance: ChEMBL document CHEMBL1148413

Form field: Selectivity (one value per entry).
Target: Nitric oxide synthase 1 (Homo sapiens, UniProt P29475)
Sequence (P29475 whole entry): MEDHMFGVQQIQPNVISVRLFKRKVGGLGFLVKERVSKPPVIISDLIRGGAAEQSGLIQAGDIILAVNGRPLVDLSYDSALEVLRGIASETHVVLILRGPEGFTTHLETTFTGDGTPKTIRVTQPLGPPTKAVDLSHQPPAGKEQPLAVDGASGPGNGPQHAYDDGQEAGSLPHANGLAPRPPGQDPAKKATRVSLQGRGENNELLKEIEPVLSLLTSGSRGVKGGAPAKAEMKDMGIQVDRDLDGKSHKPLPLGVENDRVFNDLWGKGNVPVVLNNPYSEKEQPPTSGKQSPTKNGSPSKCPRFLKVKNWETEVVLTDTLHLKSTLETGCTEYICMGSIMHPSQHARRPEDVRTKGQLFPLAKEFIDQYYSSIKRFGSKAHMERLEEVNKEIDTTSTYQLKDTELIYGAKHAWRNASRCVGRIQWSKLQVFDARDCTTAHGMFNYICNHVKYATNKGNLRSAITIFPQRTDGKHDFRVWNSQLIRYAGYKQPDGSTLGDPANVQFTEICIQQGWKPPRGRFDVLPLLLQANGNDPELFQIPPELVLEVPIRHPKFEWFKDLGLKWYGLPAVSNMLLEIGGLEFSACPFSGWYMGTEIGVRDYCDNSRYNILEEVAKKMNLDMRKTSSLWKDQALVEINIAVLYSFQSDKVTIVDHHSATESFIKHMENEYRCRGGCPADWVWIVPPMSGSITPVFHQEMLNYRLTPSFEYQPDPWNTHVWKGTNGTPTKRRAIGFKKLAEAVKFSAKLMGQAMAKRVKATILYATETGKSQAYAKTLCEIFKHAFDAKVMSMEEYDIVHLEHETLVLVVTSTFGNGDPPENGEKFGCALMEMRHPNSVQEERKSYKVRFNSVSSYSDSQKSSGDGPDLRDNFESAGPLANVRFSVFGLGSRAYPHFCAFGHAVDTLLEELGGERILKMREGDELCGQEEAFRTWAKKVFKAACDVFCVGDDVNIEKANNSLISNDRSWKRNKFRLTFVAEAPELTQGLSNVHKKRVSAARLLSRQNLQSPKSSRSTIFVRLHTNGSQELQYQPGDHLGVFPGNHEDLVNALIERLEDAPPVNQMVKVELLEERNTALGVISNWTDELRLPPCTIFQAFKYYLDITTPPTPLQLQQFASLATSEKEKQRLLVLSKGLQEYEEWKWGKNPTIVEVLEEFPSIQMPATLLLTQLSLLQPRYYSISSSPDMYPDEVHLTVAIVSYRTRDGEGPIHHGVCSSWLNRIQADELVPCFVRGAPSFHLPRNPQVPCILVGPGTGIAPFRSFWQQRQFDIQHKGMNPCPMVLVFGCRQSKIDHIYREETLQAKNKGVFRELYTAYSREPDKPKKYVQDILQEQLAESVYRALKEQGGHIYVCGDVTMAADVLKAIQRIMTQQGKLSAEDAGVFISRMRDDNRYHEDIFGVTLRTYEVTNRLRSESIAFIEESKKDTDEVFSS
Assay: Selectivity for Neuronal nitric oxide synthase over inducible nitric oxide synthase
ATTRIBUTE_MEASURED: Selectivity

COMPOUND: CC(=N)NCC(F)CCC(N)C(=O)O (stereo unspecified)
TESTED_SYSTEM: Nitric oxide synthase 1 (Homo sapiens, UniProt P29475)
RECORDED_RESULT: 9
--
COMPOUND: CC(=N)NCC(F)(F)CCC(N)C(=O)O (stereo unspecified)
TESTED_SYSTEM: Nitric oxide synthase 1 (Homo sapiens, UniProt P29475)
RECORDED_RESULT: 7
--
COMPOUND: CC(=N)NC[C@@H](F)CC[C@@H](N)C(=O)O
TESTED_SYSTEM: Nitric oxide synthase 1 (Homo sapiens, UniProt P29475)
RECORDED_RESULT: 7
--
COMPOUND: CC(=N)NCC(F)(F)CC[C@H](N)C(=O)O
TESTED_SYSTEM: Nitric oxide synthase 1 (Homo sapiens, UniProt P29475)
RECORDED_RESULT: 4
--
COMPOUND: CC(=N)NC[C@@H](F)CC[C@H](N)C(=O)O
TESTED_SYSTEM: Nitric oxide synthase 1 (Homo sapiens, UniProt P29475)
RECORDED_RESULT: 9
--
COMPOUND: CC(=N)NCCCC[C@H](N)C(=O)O
TESTED_SYSTEM: Nitric oxide synthase 1 (Homo sapiens, UniProt P29475)
RECORDED_RESULT: 7
